Value source: PubChem BioAssay AID248

test system: L1210 leukemia ip in BDF1 mice, survival T/C; experiment: NCI In Vivo Anticancer Drug Screen. Data for tumor model L1210 Leukemia (intraperitoneal) in B6D2F1 (BDF1) mice; settings: endpoint: mean survival time; dose: 100.0 mg/kg/injection; schedule: Q01DX009 (ip); vehicle: Klucel (hydroxypropylcellulose) (HPC); higher = longer survival
Toxic doses and inconclusive results are not listed.
assay_endpoint: T/C

Give T/C for each listed item.
1. CCCCCCC(=O)C(CCCC)(C(=O)OCC)C(=O)OCC
2. CCCCCCCCCCNc1ccc(NCCCCCCCCCC)cc1
3. COC(=S)SCN(CSC(=S)OC)c1ccccc1Cl
4. Cc1cccc(Cl)c1NC(=O)Nc1onc(C)c1C
5. Nc1nc(=S)c2[nH]c(N=Nc3ccc(S(N)(=O)=O)cc3)nc2[nH]1

# output
["101 % of control", "108 % of control", "109 % of control", "103 % of control", "100 % of control"]

Give T/C for each listed item.
1. c1ccc(-c2nc[nH]c2-c2ccccc2)cc1
2. CNc1ccc(Cl)cc1-c1nc2ccccc2[nH]1
3. OC(c1ccccc1)C1C2C=CC(C2)C1C(O)c1ccccc1 (centres undefined)
4. Nc1c(Cl)cc(C(=O)NC2CC2)cc1Cl
5. CNS(=O)(=O)c1cc(C)ccc1C
6. c1ccc(C(=C(c2ccccc2)c2ccccc2)c2ccccc2)cc1
7. Cc1c(NC(=O)Nc2ccc(F)c([N+](=O)[O-])c2)c(=O)n(-c2ccccc2)n1C

# output
1: 96 % of control; 2: 102 % of control; 3: 101 % of control; 4: 100 % of control; 5: 94 % of control; 6: 99 % of control; 7: 102 % of control
